- Test system: MDA-MB-231
- Experiment description: NCI tumour cell line growth inhibition, 48 h
Active and inactive are the calls of the source. Cut-off read from the data, not from the text of the source: active = GI50 up to about 1.1 µM and inactive = higher.

{"Compound": "CC(=O)/C(=C/NC(=S)Nc1ccc(Cl)c(Cl)c1)C(=O)Nc1ccccc1C", "GI50": "27.8 µM (inactive)"}
{"Compound": "O=C(CCCN1CCC(O)(c2ccc(Cl)cc2)CC1)c1ccc(F)cc1", "GI50": "22 µM (inactive)"}
{"Compound": "CSC1(SC2=NCCN2)SC2(NCCN2)S1", "GI50": "21.1 µM (inactive)"}
{"Compound": "Cc1nc2ccccc2n1CCc1nc2ccccc2[nH]1", "GI50": "> 100 µM (inactive)"}
{"Compound": "Cc1ccc(-c2cc(-c3ccc(Cl)cc3)nc(/N=C3\\C(=O)N(CN4CCOCC4)c4ccccc43)n2)cc1", "GI50": "33.3 µM (inactive)"}
{"Compound": "CC(C)(CO)N1C(=O)c2ccccc2C1(O)c1ccc(Cl)cc1 (stereo unspecified)", "GI50": "> 100 µM (inactive)"}
{"Compound": "N#Cc1nnn(-c2ccc(Br)cc2)c1O", "GI50": "> 100 µM (inactive)"}
{"Compound": "CC(=O)OCc1ccc(-c2nc(C#N)c(N)o2)o1", "GI50": "> 10 µM (inactive)"}
{"Compound": "COc1cc2nc(-c3cccs3)oc(=O)c2cc1OC", "GI50": "74.8 µM (inactive)"}
{"Compound": "Cc1ccnn1CCc1ccc(Cl)cc1Cl", "GI50": "29.3 µM (inactive)"}
{"Compound": "O=C1CC2(CCC(O)(c3cccc4ccccc34)C(C(=O)c3cccc4ccccc34)C2)C(=O)c2ccccc2N1 (stereo unspecified)", "GI50": "17.7 µM (inactive)"}

###

Catalogue of GI50 readings, one per entry.
- System: Hs-578T
- Experiment description: NCI tumour cell line growth inhibition, 48 h
Where a name gives a salt, the structure may show the parent alone. The source made the active and inactive calls. Rule as the data show it: active = GI50 up to about 1.1 µM and inactive = higher.

{"Molecule": "COc1ccc(/C=C/C(=N/NC(=O)N/N=C(/C=C/c2ccc(OC)cc2)C(C)(C)CN2CCCCC2)C(C)(C)CN2CCCCC2)cc1", "GI50": "1.87 µM (inactive)"}
{"Molecule": "C=CCN1C(=O)CC1N(CC=C)S(=O)(=O)c1ccc(C)cc1 (stereo unspecified)", "GI50": "> 100 µM (inactive)"}
{"Molecule": "CC(C)=CCc1c(O)c(CC2=C(O)C(CC=C(C)C)(C(=O)C(C)C)C(O)=C(C)C2=O)c(O)c(C(=O)C(C)C)c1O (stereo unspecified)", "GI50": "9.89 µM (inactive)"}
{"Molecule": "O=C(CCc1cccc(O)c1)NCCCNC(=O)CCc1cccc(O)c1", "GI50": "> 100 µM (inactive)"}
{"Molecule": "Oc1ccc(/C=N/c2ccccc2O)cc1", "GI50": "37.2 µM (inactive)"}
{"Molecule": "CCCCCCCCCCCCCCCCCCNc1ccn(C2OC(COP(=O)(O)OCC3OC(n4ccc(N)nc4=O)C(O)C3O)C(O)C2O)c(=O)n1 (stereo unspecified)", "GI50": "> 100 µM (inactive)"}
{"Molecule": "CC1CNC(c2cccc(-c3nc(-c4cccc(C5=NC(C)CN5)c4)nc(N(C)C)n3)c2)=N1 (stereo unspecified)", "GI50": "2.74 µM (inactive)"}
{"Molecule": "C/C(=C\\[Si](C)(C)c1ccco1)C(C)(O)[C@H](C)O (stereo partly specified)", "GI50": "55.3 µM (inactive)"}
{"Molecule": "CON(C)C(=O)C(Cc1ccccc1)NC(=O)OC(C)(C)C (stereo unspecified)", "GI50": "> 100 µM (inactive)"}
{"Molecule": "Cc1ccc2c(c1)C(=O)C1(C2)Cc2ccc(C)cc2C1=O", "GI50": "> 100 µM (inactive)"}
{"Molecule": "CCOC(=O)/C(SC#N)=C(/N)N1CCCC1", "GI50": "> 100 µM (inactive)"}
{"Molecule": "C/C(=N/NC(=S)Nc1ccc([N+](=O)[O-])cc1)c1cccc(/C(C)=N\\NC(=S)Nc2ccc([N+](=O)[O-])cc2)n1", "GI50": "3.9 µM (inactive)"}
{"Molecule": "COC(=O)CNS(=O)(=O)c1ccc(-c2c3nc(c(-c4ccc(S(=O)(=O)NCC(=O)OC)cc4)c4ccc([nH]4)c(-c4ccc(S(=O)(=O)NCC(=O)OC)cc4)c4nc(c(-c5ccc(S(=O)(=O)NCC(=O)OC)cc5)c5ccc2[nH]5)C=C4)C=C3)cc1", "GI50": "> 100 µM (inactive)"}
{"Molecule": "CCOC(=O)CNC(=O)C(CSCc1ccc(Br)cc1)NC(=O)CCC(N)C(=O)OCC (stereo unspecified)", "GI50": "> 50 µM (inactive)"}
{"Molecule": "CN(c1ccc(Cl)cc1)S(=O)(=O)c1ccc([N+](=O)[O-])cc1", "GI50": "> 100 µM (inactive)"}
{"Molecule": "O=c1cc(-c2ccccc2F)[nH]c2ccc(N3CCCC3)cc12", "GI50": "0.0201 µM (active)"}
{"Molecule": "CC1(C)C=CC(=O)C(O)C(C)(C)C1=O (stereo unspecified)", "GI50": "28.8 µM (inactive)"}
{"Molecule": "CS(=O)(=O)OCCCNCCCOS(C)(=O)=O", "GI50": "2090 µM (inactive)"}
{"Molecule": "CN1c2ccccc2SC2C(c3ccccc3)=NOC21 (stereo unspecified)", "GI50": "29 µM (inactive)"}
{"Molecule": "N#CC[C@@H](O)COc1ccccc1", "GI50": "> 100 µM (inactive)"}
{"Molecule": "COc1ccc(N2C(=O)C(Cl)C2c2cc3cc(Br)ccc3nc2Cl)cc1 (stereo unspecified)", "GI50": "11.5 µM (inactive)"}
{"Molecule": "CSS(C)(=O)=O", "GI50": "49.2 µM (inactive)"}
{"Molecule": "Nc1nc(Cl)cc(NCC2(CCO)CCC2)n1", "GI50": "> 100 µM (inactive)"}
{"Molecule": "COc1ccc(N(c2ccc(C#N)cc2)c2ccc(C#N)cc2)cc1", "GI50": "> 100 µM (inactive)"}
{"Molecule": "CCCCCCc1cc2cc(-c3csc(-c4ccc(OC)cc4)n3)c(=O)oc2cc1O", "GI50": "15.8 µM (inactive)"}
{"Molecule": "COc1c(CCl)cc(-c2cc(=O)c3ccccc3s2)cc1CCl", "GI50": "9.57 µM (inactive)"}
{"Molecule": "O=C(N/C(=C/c1ccc(Cl)cc1)c1nc2ccccc2c(=O)n1Nc1ccc([N+](=O)[O-])cc1[N+](=O)[O-])c1ccccc1", "GI50": "> 100 µM (inactive)"}
{"Molecule": "C[C@]12CC[C@H](O)CC1=CC[C@@H]1[C@@H]2CC[C@]2(C)C(=O)CC[C@@H]12 [PRASTERONE]", "GI50": "45.6 µM (inactive)"}
{"Molecule": "Oc1cn(-c2ccc(Cl)cc2)nc1-c1nnc(-c2ccccc2)o1", "GI50": "0.484 µM (active)"}
{"Molecule": "O=C1C(N2CCNCC2)=C(Cl)C(=O)c2ncccc21", "GI50": "> 10 µM (inactive)"}
{"Molecule": "CCCCOC(=O)CC(CC(=O)OCCCC)(OC(C)=O)C(=O)OCCCC [ACETYLTRIBUTYL CITRATE]", "GI50": "> 123 µM (inactive)"}

###

- Test system: NCI-H460
- Experiment description: NCI tumour cell line growth inhibition, 48 h
Calls of active or inactive are those of the source. Cut-off read from the data, not from the text of the source: active = GI50 up to about 1.1 µM and inactive = higher.
Possible outcomes: 1 = active, -1 = inactive

{"Compound": "CN(C)/N=N/c1ccc(NC=O)cc1", "Assigned class": -1}
{"Compound": "O=[N+]([O-])C1C2C=CC(C2)[C@H]1c1ccc(Cl)cc1Cl (some centres undefined)", "Assigned class": -1}
{"Compound": "O=C(CC1Sc2ccccc2NC1=O)Nc1ccc(Cl)cc1 (centres undefined)", "Assigned class": -1}
{"Compound": "CN(C)c1cccc(/C=C(\\C#N)c2ccccc2)c1", "Assigned class": 1}
{"Compound": "CNC(=S)N/N=C(\\C)c1nc2cccnc2[nH]1", "Assigned class": -1}
{"Compound": "c1ccc(SC(Sc2ccccc2)c2ccc3c(c2)OCO3)cc1", "Assigned class": -1}
{"Compound": "Clc1ccc(OCc2nnc3sc(-c4ccc(-c5ccc(Cl)cc5Cl)o4)nn23)c(Cl)c1", "Assigned class": -1}
{"Compound": "COC(=O)c1sc(=O)n(-c2ccccc2)c1SCc1ccccc1", "Assigned class": -1}
{"Compound": "CCCNC(C#N)c1ccc(C(C#N)NCCC)cc1 (centres undefined)", "Assigned class": -1}
{"Compound": "CP(=O)(O)C(N)c1ccccc1 (centres undefined)", "Assigned class": -1}
{"Compound": "COc1ccc(C(c2ccc(C(C)C)cc(=O)c2O)c2ccc3cccnc3c2O)cc1 (centres undefined)", "Assigned class": 1}
{"Compound": "CCCCCCCC(=O)OCC1OC(n2cc(F)c(=O)[nH]c2=O)C(N)C(O)C1O (centres undefined)", "Assigned class": -1}
{"Compound": "CC(C)OC(=O)OCSc1ccccc1/N=C/c1cccc([N+](=O)[O-])c1", "Assigned class": -1}
{"Compound": "Cc1ccc(S(=O)(=O)NC(=O)NC(CCC(N)=O)C(=O)O)cc1 (centres undefined)", "Assigned class": -1}
{"Compound": "CC(=O)[C@H]1CC[C@@H]2[C@]1(C)CC=C1[C@]23C=C[C@]2(C[C@@H](O)CC[C@]12C)C(C(=O)O)C3C(=O)O (some centres undefined)", "Assigned class": -1}
{"Compound": "CC1(C)CC(=O)c2c(nc3c4c([nH]c(-c5ccc([N+](=O)[O-])cc5)c24)CC(C)(C)C3)C1", "Assigned class": -1}
{"Compound": "CC(=O)O[C@H]1CCC2[C@@H]3CCC4=C(O)C(=O)C(C#N)C[C@]4(C)C3CC[C@@]21C (some centres undefined)", "Assigned class": -1}
{"Compound": "O=[N+]([O-])c1ccc(N/N=C2/CC3=C2CCCCCCCCCC3)c([N+](=O)[O-])c1", "Assigned class": -1}
{"Compound": "COc1ccc(N(c2ccc(C#N)cc2)c2ccc(C#N)cc2)cc1", "Assigned class": -1}
{"Compound": "COc1ccc(CCc2ccc3c(c2)OCO3)cc1", "Assigned class": -1}
{"Compound": "CCCCCCCCCCCCCCCCOCC(Cl)COP(=O)(O)OP(=O)(O)OCC1OC(n2cnc3c(N)ncnc32)C(O)C1O (centres undefined)", "Assigned class": -1}
{"Compound": "CCOC(=O)C1(C#N)C(c2ccccc2)CC(O)(c2ccc(Cl)cc2)C(C(=O)c2ccc(Cl)cc2)C1c1ccccc1 (centres undefined)", "Assigned class": -1}
{"Compound": "CCC1(O)CC(O)c2c(O)c3c(c(O)c2C1C(=O)OC)C(=O)c1cccc(O)c1C3=O (centres undefined)", "Assigned class": -1}
{"Compound": "CC(NO)/C(=N/O)c1ccco1 (centres undefined)", "Assigned class": -1}
{"Compound": "CC(=O)/C(=C/NC(=S)Nc1ccc(Cl)c(Cl)c1)C(=O)Nc1ccccc1C", "Assigned class": -1}
{"Compound": "O=C(c1ccccc1)c1c(CC(O)c2ccccc2)n(C(=O)c2ccccc2)c2ccccc12 (centres undefined)", "Assigned class": -1}
{"Compound": "COC(=O)CNS(=O)(=O)c1ccc(-c2c3nc(c(-c4ccc(S(=O)(=O)NCC(=O)OC)cc4)c4ccc([nH]4)c(-c4ccc(S(=O)(=O)NCC(=O)OC)cc4)c4nc(c(-c5ccc(S(=O)(=O)NCC(=O)OC)cc5)c5ccc2[nH]5)C=C4)C=C3)cc1", "Assigned class": -1}
{"Compound": "CC(=O)NNc1nc(C)c(C(/C=C/c2ccc(Cl)cc2)=N\\NS(=O)(=O)c2ccc(C)cc2)s1", "Assigned class": -1}
{"Compound": "COS(=O)CCOC(=O)c1ccccc1SSc1ccccc1C(=O)OCCS(=O)OC (centres undefined)", "Assigned class": -1}
